The values you see were collected from ChEMBL document CHEMBL3272290.

System: Rattus norvegicus
Test: Antifertility activity in Wistar rat assessed as inhibition of preimplantive gestation by measuring resorptions at 40 mg/kg, po administered in days 9 to 12 of pregnancy measured on day 21
Assay type: functional
Set-up: scale not given: the % may be the effect or the level left
# note: boundary value 10% maps to -1; Activity below it maps to 1

smiles record | category
C#C[C@]1(O)CC[C@H]2[C@@H]3CC[C@H]4C/C(=N/Oc5ccc([N+](=O)[O-])cc5)CC[C@]4(C)[C@H]3CC[C@@]21C | -1

## Input Given C[C@]12CC[C@H]3[C@@H](CCC4=C/C(=N/Oc5ccccn5)CC[C@@]43C)[C@@H]1CC[C@@H]2O , is recorded Activity strictly lower than 10%?
## Output -1

## Input Now consider CC(=O)O[C@H]1CC[C@H]2[C@@H]3CC[C@H]4CC(=O)CC[C@]4(C)[C@H]3CC[C@]12C and answer again.
## Output 1

## Input Now consider C[C@]12CC[C@H]3[C@@H](CCC4=C/C(=N/Oc5ccccc5[N+](=O)[O-])CC[C@@H]43)[C@@H]1CC[C@@H]2O and answer again.
## Output -1

## Input Now consider Cc1cc(O/N=C2\CC[C@@]3(C)[C@@H](CC[C@@H]4[C@@H]3CC[C@]3(C)[C@@H](O)CC[C@@H]43)C2)ccc1[N+](=O)[O-] and answer again.
## Output -1

## Input Now consider CC(=O)[C@H]1CC[C@H]2[C@@H]3CC[C@H]4C/C(=N/Oc5ccc([N+](=O)[O-])cc5)CC[C@]4(C)[C@H]3CC[C@]12C and answer again.
## Output 1

* * *

Test system: Rattus norvegicus
Assay: Antifertility activity in Wistar rat assessed as inhibition of preimplantive gestation by measuring resorptions at 40 mg/kg, po administered in days 9 to 12 of pregnancy measured on day 21
Assay type: functional
Parameters: scale not given: the % may be the effect or the level left
Record yes (1) whenever Activity is at 6% or higher; record no (0) when lower.

Field: example entries. Status: answers known.
smiles record | category
C[C@]12CC[C@H]3[C@@H](CCC4=C/C(=N/Oc5ccccc5)CC[C@@H]43)[C@@H]1CC[C@@H]2O | yes (1)
C[C@]12CC/C(=N\Oc3ccc([N+](=O)[O-])cc3)C[C@H]1CC[C@@H]1[C@@H]2CC[C@]2(C)[C@@H](O)CC[C@@H]12 | yes (1)
C[C@]12CC/C(=N\Oc3ccc([N+](=O)[O-])cc3[N+](=O)[O-])C[C@H]1CC[C@@H]1[C@@H]2CC[C@]2(C)[C@@H](O)CC[C@@H]12 | no (0)
C[C@]12CC/C(=N\OCc3ccc(Br)c(O)c3)C[C@@H]1CC[C@@H]1[C@@H]2CC[C@]2(C)[C@@H](O)CC[C@@H]12 | yes (1)
C[C@]12CC/C(=N\Oc3ccc([N+](=O)[O-])cc3)C[C@@H]1CC[C@@H]1[C@@H]2CC[C@@]2(C)[C@H]1CC[C@]2(C)O | yes (1)

## Input Form field: Activity at least 6%? Entry: C[C@]12CC/C(=N\Oc3ccc([N+](=O)[O-])cc3)C[C@@H]1CC[C@@H]1[C@@H]2CC[C@@]2(C)[C@H]1CCC21SCCS1
## Output no (0)

## Input Now consider C[C@]12CC/C(=N\Oc3ccccc3)C[C@@H]1CC[C@@H]1[C@@H]2CC[C@]2(C)[C@@H](O)CC[C@@H]12 and answer again.
## Output no (0)

## Input Now consider C[C@]12CC/C(=N\Oc3ccccc3)C[C@H]1CC[C@@H]1[C@@H]2CC[C@]2(C)[C@@H](O)CC[C@@H]12 and answer again.
## Output yes (1)

## Input Now consider C[C@]12CC/C(=N\Oc3ccc([N+](=O)[O-])cc3)C[C@@H]1CC[C@@H]1[C@@H]2CC[C@]2(C)[C@@H](N)CC[C@@H]12 and answer again.
## Output no (0)

## Input Now consider CC(=O)O[C@H]1CC[C@H]2[C@@H]3CC[C@H]4C/C(=N/Oc5ccc([N+](=O)[O-])cc5)C[C@H](C)[C@]4(C)[C@H]3CC[C@]12C and answer again.
## Output no (0)

## Input Now consider C[C@]12CC/C(=N\Oc3ccc(C(F)(F)F)cc3)C[C@@H]1CC[C@@H]1[C@@H]2CC[C@]2(C)[C@@H](O)CC[C@@H]12 and answer again.
## Output no (0)
